readoutKind: pKi
Field pKi (float): negative decimal logarithm of the concentration in molar.

Inquiry: With Plasminogen (Homo sapiens) as the test system, provide measured pKi for this compound: `N=C(N)c1cccc(C[C@H](NS(=O)(=O)c2ccc(Cc3ccncc3)cc2)C(=O)N2CCC(CCN=C(N)N)CC2)c1`
Sequence (P00747 97-580 limits assumed): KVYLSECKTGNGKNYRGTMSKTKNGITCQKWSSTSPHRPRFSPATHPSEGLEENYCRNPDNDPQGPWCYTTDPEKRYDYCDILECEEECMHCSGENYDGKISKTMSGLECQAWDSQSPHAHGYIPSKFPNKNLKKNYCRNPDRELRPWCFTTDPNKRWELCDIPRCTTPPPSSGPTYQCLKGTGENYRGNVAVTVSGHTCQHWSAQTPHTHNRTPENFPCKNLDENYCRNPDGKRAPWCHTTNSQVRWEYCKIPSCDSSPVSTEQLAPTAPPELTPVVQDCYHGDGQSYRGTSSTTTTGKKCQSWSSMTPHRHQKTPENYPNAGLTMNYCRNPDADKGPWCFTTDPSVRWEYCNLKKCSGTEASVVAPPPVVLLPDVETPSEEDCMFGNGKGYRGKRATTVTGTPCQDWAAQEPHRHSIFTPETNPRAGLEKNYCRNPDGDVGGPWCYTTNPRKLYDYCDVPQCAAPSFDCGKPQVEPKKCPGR
Sequence (P00747 581-810 limits assumed): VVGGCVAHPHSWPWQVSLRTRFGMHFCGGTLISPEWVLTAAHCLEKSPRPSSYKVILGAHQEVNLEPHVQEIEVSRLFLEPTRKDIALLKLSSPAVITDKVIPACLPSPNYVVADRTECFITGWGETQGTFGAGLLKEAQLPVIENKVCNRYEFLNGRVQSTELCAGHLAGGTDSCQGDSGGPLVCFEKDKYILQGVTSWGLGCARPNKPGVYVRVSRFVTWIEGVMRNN
Reply text: 6.08

Inquiry: With Plasminogen (Homo sapiens) as the test system, provide measured pKi for this compound: `N=C(N)c1cccc(C[C@H](NS(=O)(=O)c2cccc(NC(=O)CN)c2)C(=O)N2CCC(CCN)CC2)c1`
Reply text: 5.35

Inquiry: With Plasminogen (Homo sapiens) as the test system, provide measured pKi for this compound: `N=C(N)NCCC(=O)Nc1ccc(S(=O)(=O)N[C@@H](Cc2cccc(C(=N)N)c2)C(=O)N2CCC(CCNC(=N)N)CC2)cc1`
Reply text: 5.92

Inquiry: With Plasminogen (Homo sapiens) as the test system, provide measured pKi for this compound: `N=C(N)c1cccc(C[C@H](NS(=O)(=O)c2ccc(-c3ccccc3)cc2)C(=O)N2CCN(C(=O)C3CCN(C(=N)N)CC3)CC2)c1`
Reply text: 5.85

Inquiry: With Plasminogen (Homo sapiens) as the test system, provide measured pKi for this compound: `CCC(=O)N1CCN(C(=O)[C@H](Cc2cccc(C(=N)N)c2)NS(=O)(=O)c2ccc3c(c2)C(=O)c2ccccc2C3=O)CC1`
Reply text: 5.22

Inquiry: With Plasminogen (Homo sapiens) as the test system, provide measured pKi for this compound: `CC(C)c1cc(C(C)C)c(S(=O)(=O)N[C@@H](Cc2cccc(C(=N)N)c2)C(=O)N2CCN(C(=O)C3CCNCC3)CC2)c(C(C)C)c1`
Reply text: 5.89

Inquiry: With Plasminogen (Homo sapiens) as the test system, provide measured pKi for this compound: `N=C(N)NCCC(=O)N1CCN(C(=O)[C@H](Cc2cccc(C(=N)N)c2)NS(=O)(=O)c2ccc(C3CCCCC3)cc2)CC1`
Reply text: 6.11

Inquiry: With Plasminogen (Homo sapiens) as the test system, provide measured pKi for this compound: `N=C(N)NCCC(=O)N1CCN(C(=O)[C@H](Cc2cccc(C(=N)N)c2)NS(=O)(=O)Cc2ccc3ccccc3c2)CC1`
Reply text: 4.92

Inquiry: With Plasminogen (Homo sapiens) as the test system, provide measured pKi for this compound: `N=C(N)c1cccc(C[C@H](NS(=O)(=O)c2ccc3ccccc3c2)C(=O)N2CCC(CCCN)CC2)c1`
Reply text: 6.14

Inquiry: With Plasminogen (Homo sapiens) as the test system, provide measured pKi for this compound: `CC(C)c1cc(C(C)C)c(S(=O)(=O)N[C@@H](Cc2cccc(C(=N)N)c2)C(=O)N2CCN(C(=O)CCN=C(N)N)CC2)c(C(C)C)c1`
Reply text: 5.85

Inquiry: With Plasminogen (Homo sapiens) as the test system, provide measured pKi for this compound: `CCC(C)(C)c1ccc(S(=O)(=O)N[C@@H](Cc2cccc(C(=N)N)c2)C(=O)N2CCN(C(=O)CCN=C(N)N)CC2)cc1`
Reply text: 5.60

Inquiry: With Plasminogen (Homo sapiens) as the test system, provide measured pKi for this compound: `CC(C)c1cc(C(C)C)c(S(=O)(=O)N[C@@H](Cc2cccc(C(=N)N)c2)C(=O)N2CCCN(C(=O)C3CCN(C(=N)N)CC3)CC2)c(C(C)C)c1`
Reply text: 6.48

Inquiry: With Plasminogen (Homo sapiens) as the test system, provide measured pKi for this compound: `CC(C)c1cc(C(C)C)c(S(=O)(=O)N[C@@H](Cc2cccc(C(=N)N)c2)C(=O)N2CCCN(C(=O)C3CCNCC3)CC2)c(C(C)C)c1`
Reply text: 6.59

Inquiry: With Plasminogen (Homo sapiens) as the test system, provide measured pKi for this compound: `CC(C)c1cc(C(C)C)c(S(=O)(=O)N[C@@H](Cc2cccc(C(=N)N)c2)C(=O)N2CCC(C(=O)NCCN=C(N)N)CC2)c(C(C)C)c1`
Reply text: 5.74

This collection of values is drawn from ChEMBL document CHEMBL1138903.
